Experiment: log P by HPLC on reversed-phase column (C 18), EEC Directive 79/831 Annex V.A8
Format: physicochemical
Details: log P (HCOOH), acidic range at pH 2.7, 0.1% aqueous formic acid and acetonitrile; HPLC on reversed-phase column (C 18), 55° C.
Property: LOGP_HCOOH; scope: individual molecules

>  <Molecule>
N#CC1CCC(CNC(=O)c2cc(-c3ccc(C(F)(F)C(F)(F)F)c(F)c3)cc(NC(=O)C3CC3)n2)CC1 (stereo not shown)

>  <LOGP_HCOOH>
4.29

$$$$
>  <Molecule>
N#Cc1ccc(CNC(=O)c2cc(-c3ccc(OC(F)=C(F)F)cc3)cc(NC(=O)C3CC3)n2)cc1

>  <LOGP_HCOOH>
3.96

$$$$
>  <Molecule>
N#CC1CCC(CNC(=O)c2cc(-c3ccc(C(F)(F)C(F)(F)F)cc3)cc(NC(=O)C3CC3)n2)CC1 (stereo not shown)

>  <LOGP_HCOOH>
4.22

$$$$
>  <Molecule>
O=C(NCc1ccccc1)c1cc(-c2ccc(OC(F)(F)F)cc2)cc(NC(=O)C2CC2)n1

>  <LOGP_HCOOH>
4.23

$$$$
>  <Molecule>
N#CC1CCC(CNC(=O)c2cc(-c3ccc(OC(F)(F)F)cc3)cc(NC(=O)C3CC3)n2)CC1 (stereo not shown) [Example I-198]

>  <LOGP_HCOOH>
3.85

$$$$
>  <Molecule>
O=C(NC1CCCC1)c1cc(-c2ccc(OC(F)(F)F)cc2)cc(NC(=O)C2CC2)n1

>  <LOGP_HCOOH>
4.35

$$$$
>  <Molecule>
N#Cc1ccc(CNC(=O)c2cc(-c3ccc4c(c3)OC(F)(F)O4)cc(NC(=O)C3CC3)n2)cc1

>  <LOGP_HCOOH>
3.76

$$$$
>  <Molecule>
CCNC(=O)c1cc(-c2ccc(OC(F)(F)F)cc2)cc(NC(=O)C2CC2)n1

>  <LOGP_HCOOH>
3.41

$$$$
>  <Molecule>
O=C(NC1COC1)c1cc(-c2ccc(OC(F)(F)F)cc2)cc(NC(=O)C2CC2)n1

>  <LOGP_HCOOH>
3.07

$$$$
>  <Molecule>
CCN(C(=O)C(C)C)c1cc(-c2ccc(OC(F)(F)F)cc2)cc(C(=O)NCc2ccc(C#N)cc2)n1

>  <LOGP_HCOOH>
4.20

$$$$
>  <Molecule>
N#Cc1ccc(CNC(=O)c2cc(-c3ccc(C(F)(F)F)nc3F)cc(NC(=O)C3CC3)n2)cc1

>  <LOGP_HCOOH>
3.24

$$$$
>  <Molecule>
Cn1ncc2cc(CNC(=O)c3cc(-c4ccc(OC(F)(F)F)cc4)cc(NC(=O)C4CC4)n3)cnc21

>  <LOGP_HCOOH>
3.33

$$$$
>  <Molecule>
O=C(NC1(C(F)(F)F)CC1)c1cc(-c2ccc(OC(F)(F)F)cc2)cc(NC(=O)C2CC2)n1

>  <LOGP_HCOOH>
4.17

$$$$
